# assay method text: Pharmacokinetics in cynomolgus monkeys
# Format: in vivo
# experimental conditions: cynomolgus, cynomolgus monkey, plasma, iv; monkeys, i.v. bolus 2.5 mg/kg
assay metric: AUC(0-t) (ng·h/mL)
Dear colleague, please return just the value in ng·h/mL, with no unit written.

In: Given the entry `CNCc1ccc(-c2cc3cc(F)cc(C(N)=O)c3o2)cc1` , report its measured AUC(0-t).
Out: 665

---

# assay method text: Pharmacokinetics in SD rats
# Type: in vivo
# experimental conditions: Sprague-Dawley (SD), rat, plasma; rats, oral 20 mg/kg; read-out: Cmax
assay metric: Cmax
Respond with the figure and its unit, in that order.

In: Given the entry CNCc1ccc(-c2cc3cc(F)cc(C(N)=O)c3o2)cc1 [MPH] , report its measured Cmax.
Out: 368 ng/mL

---

# assay method text: Pharmacokinetics in SD rats
# Format: in vivo
# experimental conditions: SD, rat, plasma; rats, oral 40 mg/kg; read-out: Cmax
assay metric: Cmax (ng/mL)
Dear colleague, please return just the value in ng/mL, with no unit written.

In: Given the entry `CNCc1ccc(-c2cc3cc(F)cc(C(N)=O)c3o2)cc1` , report its measured Cmax.
Out: 725

---

# assay method text: Pharmacokinetics in SD rats
# Format: in vivo
# experimental conditions: Sprague-Dawley (SD), rat, plasma; rats, oral 10 mg/kg
assay metric: AUC(0-inf) (ng·h/mL)
Dear colleague, please return just the value in ng·h/mL, with no unit written.

In: Given the entry CNCc1ccc(-c2cc3cc(F)cc(C(N)=O)c3o2)cc1 [MPH] , report its measured AUC(0-inf).
Out: 430

---

# target or test system: PARP1 (Homo sapiens, UniProt P09874)
# Sequence (P09874 whole entry): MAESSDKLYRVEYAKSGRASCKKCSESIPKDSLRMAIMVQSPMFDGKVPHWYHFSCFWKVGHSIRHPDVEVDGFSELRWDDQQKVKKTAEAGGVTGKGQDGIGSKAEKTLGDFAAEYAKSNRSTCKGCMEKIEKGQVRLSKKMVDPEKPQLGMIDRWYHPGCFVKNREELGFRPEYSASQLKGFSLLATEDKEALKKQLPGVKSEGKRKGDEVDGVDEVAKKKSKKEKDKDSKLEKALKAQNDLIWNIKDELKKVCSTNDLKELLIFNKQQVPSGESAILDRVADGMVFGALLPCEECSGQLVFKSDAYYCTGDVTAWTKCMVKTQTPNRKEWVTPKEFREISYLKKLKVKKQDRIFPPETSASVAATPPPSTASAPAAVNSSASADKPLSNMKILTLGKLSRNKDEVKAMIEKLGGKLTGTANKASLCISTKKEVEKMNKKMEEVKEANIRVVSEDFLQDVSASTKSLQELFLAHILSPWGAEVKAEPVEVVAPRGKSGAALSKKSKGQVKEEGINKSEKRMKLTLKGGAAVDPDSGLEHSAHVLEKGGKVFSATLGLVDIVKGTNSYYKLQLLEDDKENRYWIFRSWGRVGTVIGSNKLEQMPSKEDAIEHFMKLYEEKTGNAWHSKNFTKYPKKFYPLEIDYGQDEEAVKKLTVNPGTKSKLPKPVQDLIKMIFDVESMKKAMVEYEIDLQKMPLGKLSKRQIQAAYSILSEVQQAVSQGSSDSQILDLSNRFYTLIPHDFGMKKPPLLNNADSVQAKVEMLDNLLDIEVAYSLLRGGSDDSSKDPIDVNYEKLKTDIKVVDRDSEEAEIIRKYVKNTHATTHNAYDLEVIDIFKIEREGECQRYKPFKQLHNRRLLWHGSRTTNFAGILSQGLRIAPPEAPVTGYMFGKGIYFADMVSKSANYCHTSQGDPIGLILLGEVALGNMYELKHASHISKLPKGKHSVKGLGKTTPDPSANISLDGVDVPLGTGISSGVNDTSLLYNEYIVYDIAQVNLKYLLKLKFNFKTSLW
# assay method text: biotinylated NAD+-based luminescence assay (BPS Bioscience), PARP1
# Type: biochemical
assay metric: pIC50
Note: pIC50 values are expressed as the negative base-10 logarithm of concentration in M.

In: Given the entry `CNCc1ccc(-c2cc3cc(F)cc(C(N)=O)c3o2)cc1` , report its measured pIC50.
Out: 8.49

---

# assay method text: MPH concentrations and PK in plasma and xenografts, MDA-MB-436 xenograft model
# Type: in vivo, nude mice
# experimental conditions: nude, mouse; plasma, 40 mg/kg single oral dose
assay metric: AUC(0-inf) (ng·h/mL)
Dear colleague, please return just the value in ng·h/mL, with no unit written.

In: Given the entry `CNCc1ccc(-c2cc3cc(F)cc(C(N)=O)c3o2)cc1` , report its measured AUC(0-inf).
Out: 7380

---

# assay method text: Pharmacokinetics in SD rats
# Type: in vivo
# experimental conditions: Sprague-Dawley, plasma; rat, single-dose oral, different doses; read-out: average plasma Tmax
assay metric: Tmax

In: Given the entry `CNCc1ccc(-c2cc3cc(F)cc(C(N)=O)c3o2)cc1` , report its measured Tmax.
Out: 2 to 4 h

---

# assay method text: Pharmacokinetics in SD rats
# Assay type: in vivo
# experimental conditions: SD, rat, plasma, po, 40 mg/kg, rats, oral 40 mg/kg; read-out: F
assay metric: bioavailability
Respond with the figure and its unit, in that order.

In: Given the entry CNCc1ccc(-c2cc3cc(F)cc(C(N)=O)c3o2)cc1 [MPH] , report its measured bioavailability.
Out: 112%

---

# assay method text: Pharmacokinetics in cynomolgus monkeys
# Assay type: in vivo
# experimental conditions: cynomolgus, cynomolgus monkey, plasma; monkeys, oral, over the doses; read-out: bioavailability
assay metric: bioavailability

In: Given the entry `CNCc1ccc(-c2cc3cc(F)cc(C(N)=O)c3o2)cc1` , report its measured bioavailability.
Out: > 40%

---

# assay method text: Pharmacokinetics in SD rats
# Assay type: in vivo
# experimental conditions: Sprague-Dawley (SD), rat, plasma; rats, oral 20 mg/kg; read-out: Tmax
assay metric: Tmax
Respond with the figure and its unit, in that order.

In: Given the entry `CNCc1ccc(-c2cc3cc(F)cc(C(N)=O)c3o2)cc1` , report its measured Tmax.
Out: 3.5 h

---

# assay method text: MPH concentrations and PK in plasma and xenografts, MDA-MB-436 xenograft model;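 as to concentration in the plasma: plasma levels measured by LC-MS/MS at several times after a single oral dose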
# Format: in vivo, nude mice
# experimental conditions: nude, mouse, plasma; 0.5 h, 160 mg/kg oral; approximately equivalent; read-out: concentration in the plasma
assay metric: concentration at 0.5 h

In: Given the entry CNCc1ccc(-c2cc3cc(F)cc(C(N)=O)c3o2)cc1 [MPH] , report its measured concentration at 0.5 h.
Out: ~11.7 µM

---

# assay method text: Pharmacokinetics in cynomolgus monkeys
# Format: in vivo
# experimental conditions: cynomolgus monkey, plasma; monkeys, oral 20 mg/kg
assay metric: AUC(0-t) (µg·h/mL)
Dear colleague, please return just the value in µg·h/mL, with no unit written.

In: Given the entry `CNCc1ccc(-c2cc3cc(F)cc(C(N)=O)c3o2)cc1` , report its measured AUC(0-t).
Out: 5.68

---

# assay method text: Pharmacokinetics in cynomolgus monkeys
# Type: in vivo
# experimental conditions: cynomolgus, cynomolgus monkey, plasma, iv; monkeys, i.v. bolus 2.5 mg/kg; read-out: t1/2 (converted)
assay metric: half-life (h)
Dear colleague, please return just the value in h, with no unit written.

In: Given the entry CNCc1ccc(-c2cc3cc(F)cc(C(N)=O)c3o2)cc1 [MPH] , report its measured half-life.
Out: 2.32

---

# target or test system: TNKS1 (Homo sapiens, UniProt O95271)
# Sequence (O95271 whole entry): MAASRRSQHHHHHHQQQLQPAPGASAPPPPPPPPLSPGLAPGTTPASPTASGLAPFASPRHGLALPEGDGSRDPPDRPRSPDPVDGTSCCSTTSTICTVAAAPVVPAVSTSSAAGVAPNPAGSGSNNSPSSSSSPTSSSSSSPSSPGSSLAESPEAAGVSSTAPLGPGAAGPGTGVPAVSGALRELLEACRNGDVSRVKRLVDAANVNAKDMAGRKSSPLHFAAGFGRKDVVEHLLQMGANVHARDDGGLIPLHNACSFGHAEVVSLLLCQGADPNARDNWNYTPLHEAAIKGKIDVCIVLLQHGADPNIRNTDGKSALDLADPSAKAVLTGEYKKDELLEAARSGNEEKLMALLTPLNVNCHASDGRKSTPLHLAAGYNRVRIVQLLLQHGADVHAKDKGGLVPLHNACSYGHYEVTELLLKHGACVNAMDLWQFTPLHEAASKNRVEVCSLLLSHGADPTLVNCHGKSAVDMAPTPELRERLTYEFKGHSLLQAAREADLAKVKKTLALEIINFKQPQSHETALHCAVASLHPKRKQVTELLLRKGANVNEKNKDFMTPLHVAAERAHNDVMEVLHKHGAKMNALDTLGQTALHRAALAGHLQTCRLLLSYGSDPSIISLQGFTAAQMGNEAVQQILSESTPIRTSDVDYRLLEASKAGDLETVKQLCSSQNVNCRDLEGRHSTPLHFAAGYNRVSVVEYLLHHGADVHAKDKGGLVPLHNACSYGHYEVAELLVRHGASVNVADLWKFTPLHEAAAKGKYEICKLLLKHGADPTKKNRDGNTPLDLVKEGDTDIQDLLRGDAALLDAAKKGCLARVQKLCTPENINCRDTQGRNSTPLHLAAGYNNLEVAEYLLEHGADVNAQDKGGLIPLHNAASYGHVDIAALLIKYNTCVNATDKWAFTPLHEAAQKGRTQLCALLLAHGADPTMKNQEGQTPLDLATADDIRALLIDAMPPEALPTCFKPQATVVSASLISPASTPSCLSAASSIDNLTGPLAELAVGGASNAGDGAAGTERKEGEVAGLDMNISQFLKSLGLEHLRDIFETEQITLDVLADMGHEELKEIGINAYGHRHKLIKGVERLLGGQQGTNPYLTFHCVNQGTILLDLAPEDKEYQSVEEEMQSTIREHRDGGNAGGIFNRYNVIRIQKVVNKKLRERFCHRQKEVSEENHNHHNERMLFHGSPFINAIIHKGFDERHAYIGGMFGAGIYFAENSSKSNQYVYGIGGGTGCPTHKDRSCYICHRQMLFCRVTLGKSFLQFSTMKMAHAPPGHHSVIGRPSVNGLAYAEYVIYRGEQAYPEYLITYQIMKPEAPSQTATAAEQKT
assay metric: IC50 (nM)
Dear colleague, please return just the value in nM, with no unit written.

In: Given the entry `CNCc1ccc(-c2cc3cc(F)cc(C(N)=O)c3o2)cc1` , report its measured IC50.
Out: 1600

---

# assay method text: Pharmacokinetics in cynomolgus monkeys
# Format: in vivo
# experimental conditions: cynomolgus monkey, plasma; monkeys, oral 10 mg/kg
assay metric: AUC(0-inf) (ng·h/mL)
Dear colleague, please return just the value in ng·h/mL, with no unit written.

In: Given the entry CNCc1ccc(-c2cc3cc(F)cc(C(N)=O)c3o2)cc1 [MPH] , report its measured AUC(0-inf).
Out: 2310

---

# assay method text: MPH concentrations and PK in plasma and xenografts, MDA-MB-436 xenograft model
# Type: in vivo, nude mice
# experimental conditions: nude, mouse, xenograft tumour, po, 160 mg/kg, xenografts, oral 40, 80 or 160 mg/kg; read-out: Tmax in the xenografts
assay metric: Tmax

In: Given the entry `CNCc1ccc(-c2cc3cc(F)cc(C(N)=O)c3o2)cc1` , report its measured Tmax.
Out: 3 to 6 h

---

# assay method text: MPH concentrations and PK in plasma and xenografts, MDA-MB-436 xenograft model
# Format: in vivo, nude mice
# experimental conditions: nude, mouse, xenograft (tumor); xenograft, 40 mg/kg single oral dose
assay metric: Cmax

In: Given the entry CNCc1ccc(-c2cc3cc(F)cc(C(N)=O)c3o2)cc1 [MPH] , report its measured Cmax.
Out: 16300 ng/g

---

# assay method text: MPH concentrations and PK in plasma and xenografts, MDA-MB-436 xenograft model
# Type: in vivo, nude mice
# experimental conditions: nude, mouse; plasma, 40 mg/kg single oral dose
assay metric: MRT (h)
Dear colleague, please return just the value in h, with no unit written.

In: Given the entry `CNCc1ccc(-c2cc3cc(F)cc(C(N)=O)c3o2)cc1` , report its measured MRT.
Out: 4.47

---

# assay method text: MPH concentrations and PK in plasma and xenografts, MDA-MB-436 xenograft model
# Assay type: in vivo, nude mice
# experimental conditions: nude, mouse, xenograft (tumor); xenograft, 40 mg/kg single oral dose
assay metric: half-life (min)
Dear colleague, please return just the value in min, with no unit written.

In: Given the entry `CNCc1ccc(-c2cc3cc(F)cc(C(N)=O)c3o2)cc1` , report its measured half-life.
Out: 167

---

# assay method text: Pharmacokinetics in SD rats
# Format: in vivo
# experimental conditions: SD, rat, plasma; rats, oral 20 mg/kg; read-out: t1/2 (converted)
assay metric: half-life (h)
Dear colleague, please return just the value in h, with no unit written.

In: Given the entry `CNCc1ccc(-c2cc3cc(F)cc(C(N)=O)c3o2)cc1` , report its measured half-life.
Out: 1.15

---

# assay method text: MPH concentrations and PK in plasma and xenografts, MDA-MB-436 xenograft model;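 as to concentration in the plasma: plasma levels measured by LC-MS/MS at several times after a single oral dose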
# Format: in vivo, nude mice
# experimental conditions: nude, mouse, plasma; 0.5 h, 40 mg/kg oral; approximately equivalent; read-out: concentration in the plasma
assay metric: concentration at 0.5 h

In: Given the entry CNCc1ccc(-c2cc3cc(F)cc(C(N)=O)c3o2)cc1 [MPH] , report its measured concentration at 0.5 h.
Out: ~3.78 µM
